# System: MOLT-4
# MEASUREMENT DESCRIPTION: NCI tumour cell line growth inhibition, 48 h
The source made the active and inactive calls. Rule as the data show it: active = GI50 up to about 1.1 µM and inactive = higher.
The reply should be one of these categories: active, inactive

>  <MOLECULE>
COc1cc(C2c3cc4c(cc3OC(NNC(N)=O)C2C)OCO4)cc(OC)c1O (stereo unspecified)

>  <ASSIGNED CLASS>
inactive

$$$$

// param item: CC(Oc1ccccc1Cl)C(=O)NN1C(=O)CC(=O)NC1=S (stereo unspecified) ; yields the recorded call
inactive

// param item: C=C(C)[C@@H](O)[C@H](O)C[C@H](C)C1CC[C@]2(C)C1=CC[C@@H]1[C@@]3(C)CC[C@@H](OC(C)=O)C(C)(C)[C@@H]3C[C@@H](OC3OC(COC(C)=O)C(O)C(O)C3O)[C@]12C (stereo partly specified) ; yields the recorded call
inactive

// param item: CCOP(=O)(OCC)OC1c2[nH]cc(C(=O)OCc3ccccc3)c2-c2cc(C(=O)OC)[nH]c2C1OC (stereo unspecified) ; yields the recorded call
inactive

// param item: CCN(CC)C(=O)Cc1[nH][nH]c(=O)c1C(=O)N(CC)CC ; yields the recorded call
inactive

// param item: C/C=C/C(CC(O)(C(F)(F)F)C(F)(F)F)=N/NC(N)=S ; yields the recorded call
inactive

// param item: CC(=O)c1c(-c2ccco2)c(C#N)c(=S)n(C2OC(CO)C(O)C(O)C2O)c1C (stereo unspecified) ; yields the recorded call
inactive

// param item: COc1cc2cnc3c4ccccc4ccc3c2cc1OC ; yields the recorded call
inactive

// param item: CC(=O)/N=C1\N/C(=C\c2ccc(Cl)cc2)C(=O)N1/C=C1\C(=O)Oc2ccccc2C1=O ; yields the recorded call
inactive

// param item: CC1=CC2CCC1(C)C/C2=C(/C)OC=O (stereo unspecified) ; yields the recorded call
inactive

// param item: C[C@@H](CC(O)C(O)C(C)(C)O)C1CCC23CC12CCC1[C@@]2(C)CCC(=O)C(C)(C)C2CC(OC2OC(CO)C(O)C(O)C2O)[C@]13C (stereo partly specified) ; yields the recorded call
inactive

// param item: COc1cc(OC)c(-n2[nH]c(=O)n(C)c2=O)c(OC)c1 ; yields the recorded call
inactive

====

# Test system: SNB-19
# MEASUREMENT DESCRIPTION: NCI tumour cell line growth inhibition, 48 h
The source made the active and inactive calls. Rule as the data show it: active = GI50 up to about 1.1 µM and inactive = higher.
Provide the recorded GI50 for the entries that follow.

Examples with their reported GI50 follow.
>  <MOLECULE>
CN(N)C(=O)NCCCl

>  <OUTCOME MEASURE>
GI50

>  <MEAS VALUE>
> 100 µM (inactive)

$$$$
>  <MOLECULE>
NC(=O)CN1C=CCC(C(N)=O)=C1 [CARICOTAMIDE]

>  <OUTCOME MEASURE>
GI50

>  <MEAS VALUE>
> 100 µM (inactive)

$$$$
>  <MOLECULE>
c1ccc2c(c1)ccn2CCc1c[nH]c2ccccc12

>  <OUTCOME MEASURE>
GI50

>  <MEAS VALUE>
> 10 µM (inactive)

$$$$

# input for lookup
Look up GI50 for this molecule: CC(=O)SC(C[N+](=O)[O-])c1ccccc1 (centres undefined)
11.9 µM (inactive)

====

# Test system: U-251
# MEASUREMENT DESCRIPTION: NCI tumour cell line growth inhibition, 48 h
Active and inactive are the calls of the source. Cut-off read from the data, not from the text of the source: active = GI50 up to about 1.1 µM and inactive = higher.
The reply should be one of these categories: active, inactive

Solved entries:
>  <MOLECULE>
CC(=O)SC(C[N+](=O)[O-])c1ccccc1 (stereo unspecified)

>  <ASSIGNED CLASS>
inactive

$$$$
>  <MOLECULE>
NCCCSCC(=O)O

>  <ASSIGNED CLASS>
inactive

$$$$
>  <MOLECULE>
O=C(CCCNc1nc(-c2ccccc2)cs1)c1cccs1

>  <ASSIGNED CLASS>
inactive

$$$$
>  <MOLECULE>
CC(Cn1c2c(c3cc(O)ccc31)CCc1ccc(O)cc1-2)N(C)C (stereo unspecified)

>  <ASSIGNED CLASS>
inactive

$$$$
>  <MOLECULE>
CC12CCC(CC1(Cl)Cl)C2 (stereo unspecified)

>  <ASSIGNED CLASS>
inactive

$$$$

// param item: CN(C)CCNC(=O)c1cccc2nc3ccc4cccnc4c3nc12 ; yields the recorded call
active
